# system.name: T1, IL-13Rα1
# T1 construct: also called IL13Ra1
# T1 chain: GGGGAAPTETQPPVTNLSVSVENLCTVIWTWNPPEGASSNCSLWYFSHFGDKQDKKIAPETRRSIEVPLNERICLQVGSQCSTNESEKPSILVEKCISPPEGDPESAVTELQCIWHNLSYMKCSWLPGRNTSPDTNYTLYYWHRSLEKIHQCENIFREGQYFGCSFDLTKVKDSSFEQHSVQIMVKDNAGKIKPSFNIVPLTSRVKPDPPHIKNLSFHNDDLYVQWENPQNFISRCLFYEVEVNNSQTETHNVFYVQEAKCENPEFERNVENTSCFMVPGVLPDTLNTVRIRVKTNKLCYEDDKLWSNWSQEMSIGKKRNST
# measurement.notes: SPR, kinetic (column K-1)
readout.kind: koff (s⁻¹)
Please respond with the number in s⁻¹ and leave the unit unwritten.

A8 (ligand, grouped under 'IL-13Rα1 specific'; also called IL-13 variant A8) cytokine: PGPVPPSTAIRELIEELINITQNQKAPLCNGSMVWSINLTAGMYCAALESLINVSGCSAIEKTQRMLSGFCPHKVSAGQFSSLHVRSSRIEVAQFVKDLLHHLRTLFREGQFN | 0.0033

Which koff value is on record for B6 (ligand, grouped under 'IL-13Rα1 specific'; also called IL-13 variant B6) cytokine: PGPVPPSTATRELIEELINITQNQKAPLCNGSMVWSINLTAGMYCAALESLINVSGCSAIEKTQRMLSGFCPHKVSAGQFSSLHVRGSKIEVAQFVKDLLYHLRTLFREGQFN ? 0.0082

I would be grateful if you could share the reported koff for A11 (ligand, Grouped under 'IL-13Rα1 specific'; also called IL-13 variant A11) cytokine: PGPVPPSTAVRELIEELINITQNQKAPLCNGSMVWSINLTAGMYCAALESLINVSGCSAIEKTQRMLSGFCPHKVSAGQFSSLHVRSSKIEVAQFVKDLLFHLRTLFREGQFN . 0.0013

Returns the measured koff for the input binder. Input: A7 (ligand, grouped under 'IL-13Rα1 specific'; also called IL-13 variant A7) cytokine: PGPVPPSTAIRELIEELINITQNQKAPLCNGSMVWSINLTAGMYCAALESLINVSGCSAIEKTQRMLSGFCPHKVSAGQFSSLHVRGSKIEVAQFVKDLLHHLRALFREGQFN 0.0034
